System: human lung cancer strain NCI-H441
Type: cell-based
Where a SMILES comes first, the peptide text is derived from it. Bridges are numbered along the chain shown (N, C = ends). [ ]: non-standard residue; d: D form. The star is where a group is joined. hPhe(3-Cl-4-CF3) = N[C@@H](CCc1ccc(C(F)(F)F)c(Cl)c1)C(=O)O; NPrPhe(4-CF3) = CCCN[C@@H](Cc1ccc(C(F)(F)F)cc1)C(=O)O; NMeGly(cPent) = CN[C@H](C(=O)O)C1CCCC1; Pro(4S-Me) = C[C@@H]1CN[C@H](C(=O)O)C1; Hyp = O=C(O)[C@@H]1C[C@@H](O)CN1; NMeD = CN[C@@H](CC(=O)O)C(=O)O; NMeL = CN[C@@H](CC(C)C)C(=O)O; Morpholide = C1CN(*)CCO1; Ac5c = NC1(C(=O)O)CCCC1; Sar = CNCC(=O)O
Quick reference for IC50 among some molecules
Reply numerically in nM, unit not repeated.

Reference set, count: 3
CCO[C@@H]1C[C@H]2C(=O)NC3(CCC3)C(=O)N(C)[C@@H](C3CCCC3)C(=O)N(C)[C@H](C(=O)N(C)C)CC(=O)N(C)[C@H]3CCCCCCc4ccc(cc4)C[C@@H](C(=O)N(C)CC(=O)N[C@@H](CCc4ccc(C(F)(F)F)c(OC)c4)C(=O)N2C1)N1CC/C=C\C[C@@H](C1=O)N(C)C(=O)CN(C)C(=O)[C@H]([C@@H](C)CC)NC3=O : 13.1
CCO[C@@H]1C[C@H]2C(=O)NC3(CC(C)(C)C3)C(=O)N(C)[C@@H](C3CCCC3)C(=O)N(C)[C@H](C(=O)N(C)CC)CC(=O)N(C)[C@@H](CC(C)C)C(=O)N[C@@H]([C@@H](C)OCC)C(=O)N(C)CC(=O)N(C)[C@H]3C/C=C\CCN(C3=O)[C@@H](Cc3ccc(C(F)(F)F)cc3)C(=O)N(C)CC(=O)N[C@@H](CCc3cc(F)c(C(F)(F)F)c(F)c3)C(=O)N2C1 : 6.3
CC[C@H](C)[C@@H]1NC(=O)[C@H](CC(C)C)N(C)C(=O)C[C@@H](C(=O)N(C)C)N(C)C(=O)[C@H](C2CCCC2)N(C)C(=O)C2(CCC2)NC(=O)[C@@H]2C[C@@H](C)CN2C(=O)[C@H](CCc2cc(F)c(C(F)(F)F)c(F)c2)NC(=O)CN(C)C(=O)[C@H](Cc2ccc(C)cc2)N2CC/C=C\C[C@@H](C2=O)N(C)C(=O)CN(C)C1=O : 11.1

Req: Data request, read-out IC50, for `CC[C@H](C)[C@@H]1NC(=O)[C@@H]2CCC/C=C/c3ccc(cc3)C[C@@H](C(=O)N(C)CC(=O)N[C@@H](CCc3ccc(Cl)c(Cl)c3)C(=O)N3CCC[C@H]3C(=O)NC3(CC(C)(C)C3)C(=O)N(C)[C@@H](C3CCCC3)C(=O)N(C)[C@H](C(=O)N3CCCC3)CC(=O)N2C)N2CC/C=C\C[C@@H](C2=O)N(C)C(=O)CN(C)C1=O`
Resp: 12.8

Req: Fill in: IC50 of `CCC[C@H]1C(=O)N[C@@H]([C@@H](C)CC)C(=O)N(C2CC2)CC(=O)N(C)[C@H]2C/C=C\CCN(C2=O)[C@@H](Cc2ccc(C(F)(F)F)cc2)C(=O)N(C)CC(=O)N[C@@H](CCc2cc(F)c(C(F)(F)F)c(F)c2)C(=O)N2C[C@H](OCC)C[C@H]2C(=O)NC2(CC(C)(C)C2)C(=O)N(C)[C@@H](C2CCCC2)C(=O)N(C)[C@H](C(=O)N(C)C)CC(=O)N1C` is ___
Resp: 16.6

Req: Which IC50 is reported for this molecule? `C=CCN1CC(=O)N(C)[C@H]2C/C=C\CCN(C2=O)[C@@H](Cc2ccc(C(F)(F)F)cc2)C(=O)N(C)CC(=O)N[C@@H](CCc2ccc(C(F)(F)F)c(OC)c2)C(=O)N2C[C@H](OCC)C[C@H]2C(=O)NC2(CC(C)(C)C2)C(=O)N(C)[C@@H](C2CCCC2)C(=O)N(C)[C@H](C(=O)N(C)C)CC(=O)N(C)[C@@H](CCC)C(=O)N[C@@H]([C@@H](C)CC)C1=O`
Resp: 6.1

Req: // lookup IC50 for CCCN1C(=O)CN(C)C(=O)CN(C)C(=O)[C@H]([C@@H](C)CC)NC(=O)[C@H](CC(C)C)N(C)C(=O)C[C@@H](C(=O)N(C)C)N(C)C(=O)[C@H](C2CCCC2)N(C)C(=O)C2(CCCC2)NC(=O)[C@@H]2C[C@@H](OCC)CN2C(=O)[C@H](CCc2ccc(C(F)(F)F)c(Cl)c2)NC(=O)CN(C)C(=O)[C@@H]1Cc1ccc(C(F)(F)F)cc1 [PP0415] ([NMeL]I[Sar][Sar][NPrPhe(4-CF3)][Sar][hPhe(3-Cl-4-CF3)][Hyp](Et)[Ac5c][NMeGly(cPent)][NMeD]-NMe2; lactam N-11)
Resp: 1.9

Req: # IC50 lookup, item CCCN1C(=O)CN(C)C(=O)CNC(=O)[C@H]([C@@H](C)CC)NC(=O)[C@H](CC(C)C)N(C)C(=O)C[C@@H](C(=O)N2CCOCC2)N(C)C(=O)[C@H](C2CCCC2)N(C)C(=O)C2(CCCC2)NC(=O)[C@@H]2C[C@H](C)CN2C(=O)[C@H](CCc2ccc(C(F)(F)F)c(Cl)c2)NC(=O)CN(C)C(=O)[C@@H]1Cc1ccc(C(F)(F)F)cc1 [PP0449] ([NMeL]IG[Sar][NPrPhe(4-CF3)][Sar][hPhe(3-Cl-4-CF3)][Pro(4S-Me)][Ac5c][NMeGly(cPent)][NMeD]-Morpholide; lactam N-11)
Resp: 9.2

Req: Would you mind telling me what IC50 value was observed for `CC[C@H](C)[C@@H]1NC(=O)[C@H](CC)N(C)C(=O)C[C@@H](C(=O)N(C)C)N(C)C(=O)[C@H](C2CCCC2)N(C)C(=O)C2(CC(C)(C)C2)NC(=O)[C@H](CC)N(C)C(=O)[C@H](CCc2cc(F)c(C(F)(F)F)c(F)c2)NC(=O)CN(C)C(=O)[C@H](Cc2ccc(C(F)(F)F)cc2)N2CC/C=C\C[C@@H](C2=O)N(C)C(=O)CN(C)C1=O` ?
Resp: 13.1

Req: Give its IC50 value. Item: `CCO[C@@H]1C[C@H]2C(=O)NC3(CC(C)(C)C3)C(=O)N(C)[C@@H](C3CCCC3)C(=O)N(CC)[C@H](C(=O)N(C)C)CC(=O)N(C)[C@@H](CC)C(=O)N[C@@H]([C@@H](C)CC)C(=O)N(C)CC(=O)N(C)[C@H]3C/C=C\CCN(C3=O)[C@@H](Cc3ccc(C(F)(F)F)cc3)C(=O)N(C)CC(=O)N[C@@H](CCc3cc(F)c(C(F)(F)F)c(F)c3)C(=O)N2C1`
Resp: 4.9
